# credit: paper PMC6792352

Experiment: in vitro
Conditions: rat, gh3-tre-luc cells, AC50 (uM) modified / 1000, Tox21_110001=Tox21_113339; viability, 1 nM T3 present, 24 h
Reported Property: CC50 at 24 h

GET /values?readout=CC50 at 24 h&item= CCCCC1C(=O)NC(=O)N(C2CCCCC2)C1=O (stereo not shown)
> 50 µM

* * *

Experiment: in vitro
Conditions: rat, gh3-tre-luc cells, AC50 (uM) modified / 1000, Tox21_110001=Tox21_111647; viability, 1 nM T3 present, 24 h
Reported Property: CC50 at 24 h

GET /values?readout=CC50 at 24 h&item= "C[C@]12C=CC(=O)C=C1CC[C@@H]1[C@@H]2CC[C@@]2(C)[C@H]1CC[C@]2(C)O"
> 50 µM

* * *

Tested on: GH3-TRE-Luc cell line
Conditions: read-out: AC50 (uM) modified / 1000; Tox21_110001=Tox21_113297; viability, 1 nM T3 present, 24 h
Reported Property: CC50 (µM)
Numbers only, in µM.

API: value(readout=CC50, system=GH3-TRE-Luc cell line) for record Oc1cccc(-c2c3nc(c(-c4cccc(O)c4)c4ccc([nH]4)c(-c4cccc(O)c4)c4nc(c(-c5cccc(O)c5)c5ccc2[nH]5)CC4)C=C3)c1 [Temoporfin]
11.2

* * *

Assay: in vitro
Details: rat, gh3-tre-luc cells, AC50 (uM) modified / 1000
Structures can show the parent of a compound that is named as a salt.
Answer each item with its documented CC50 at 24 h.

Illustrative cases are given below, each with its answer.
Compound	CC50 at 24 h
CC(=O)Nc1nnc(S(N)(=O)=O)s1 [Acetazolamide]	> 90 µM
CC(=O)OCc1ccccc1 [Benzyl acetate]	> 90 µM
CC1=NN(c2ccc(S(=O)(=O)O)cc2)C(=O)C1N=Nc1ccccc1 (stereo not shown)	69.4 µM

For every listed record, write down its CC50 at 24 h.
1. CCCCCCCCCCCCOCCCN
2. CCN(O)CC [N,N-Diethylhydroxylamine]
3. COc1ccc2c(c1)N(C[C@H](C)CN(C)C)c1ccccc1S2 [Methotrimeprazine maleate]
4. CC(C)OC(=O)CCCCC(=O)OC(C)C [Diisopropyl adipate]
5. CCCCCCCCCC(=O)NO [Decanohydroxamic acid]
6. Nc1c(CC(=O)O)cccc1C(=O)c1ccccc1 [Amfenac sodium]

> 50 µM
> 90 µM
6.79 µM
> 90 µM
> 50 µM
> 50 µM

GET /values?readout=CC50 at 24 h&item= CCCC1O[C@@H]2C[C@H]3[C@@H]4CCC5=CC(=O)C=C[C@]5(C)[C@H]4[C@@H](O)C[C@]3(C)[C@]2(C(=O)CO)O1 (stereo partly shown) [Budesonide]
> 90 µM

* * *

Answer each item with its documented CC50 at 24 h.
Test: in vitro
Conditions: rat, gh3-tre-luc cells, AC50 (uM) modified / 1000

>>> df
             molecule   result
0  CC(C)c1ccc(C=O)cc1  > 90 µM

For every listed record, write down its CC50 at 24 h.
1. O=S(=O)(O)c1cccc2c(S(=O)(=O)O)cccc12
2. CCC(C)O (stereo not shown)
3. CCOC(=O)C1=C[C@]2(CC)CCCN3CCc4c(n1c1ccccc41)[C@@H]32
4. OCCCO

1: > 90 µM; 2: > 90 µM; 3: 22.7 µM; 4: > 200 µM

For every listed record, write down its CC50 at 24 h.
1. Clc1cc(Cl)c(Cl)c(Cl)c1Cl
2. CCCC(=O)O[C@]1(C(=O)CCl)[C@@H](C)C[C@H]2[C@@H]3CCC4=CC(=O)C=C[C@]4(C)[C@@]3(F)C(=O)C[C@@]21C [Clobetasone butyrate]
3. COc1cc(/C=C/c2ccccc2)oc(=O)c1
4. COc1cc(CC(C)N)cc(OC)c1OC (stereo not shown)
5. CC(C)CCCC(C)N (stereo not shown)

["> 90 µM", "> 50 µM", "> 90 µM", "> 100 µM", "> 50 µM"]

For every listed record, write down its CC50 at 24 h.
1. CC(=O)c1ccccc1[N+](=O)[O-]
2. C#CCC1=C(C)C(OC(=O)C2C(C=C(C)C)C2(C)C)CC1=O (stereo not shown)
3. CCCCCCCC#N
4. CC(C)(C)CC(C)(C)c1ccc(Nc2ccc(C(C)(C)CC(C)(C)C)cc2)cc1
5. C=CCc1ccc(OC)cc1
6. COC(=O)COc1ccc(Cl)cc1Cl

1. > 90 µM
2. 66.6 µM
3. > 90 µM
4. > 5 µM
5. > 90 µM
6. > 90 µM

For every listed record, write down its CC50 at 24 h.
1. O=C(OCc1ccccc1)c1ccc(O)cc1
2. CC(C)C(C)(C)C(C)(C)C(C)(C)S

> 90 µM
> 90 µM

GET /values?readout=CC50 at 24 h&item= "NNC(=O)OCc1ccccc1"
> 90 µM

* * *

Test: in vitro
Conditions: rat, gh3-tre-luc cells, AC50 (uM) modified / 1000, Tox21_110001=Tox21_301412; viability, 1 nM T3 present, 24 h
Counter-ions that a name gives are not always drawn.
Reported Property: CC50 at 24 h

GET /values?readout=CC50 at 24 h&item= Cc1cc(Cl)ccc1N=CN(C)C [Chlordimeform hydrochloride]
> 90 µM

* * *

Assay: in vitro
Details: rat, gh3-tre-luc cells, AC50 (uM) modified / 1000, Tox21_110001=Tox21_300863; viability, 1 nM T3 present, 24 h
Reported Property: CC50 at 24 h

GET /values?readout=CC50 at 24 h&item= CCNP(=S)(OC)O/C(C)=C/C(=O)OC(C)C (stereo not shown) [Propetamphos]
> 90 µM

* * *

Assay: in vitro
Settings: rat, gh3-tre-luc cells, AC50 (uM) modified / 1000, Tox21_110001=Tox21_200060; viability, 1 nM T3 present, 24 h
Reported Property: CC50 at 24 h

GET /values?readout=CC50 at 24 h&item= CC(=O)C(C)(C)C [3,3-Dimethyl-2-butanone]
> 100 µM

* * *

Answer each item with its documented CC50 at 24 h.
Test: in vitro
Conditions: rat, gh3-tre-luc cells, AC50 (uM) modified / 1000
Structures can show the parent of a compound that is named as a salt.

>>> print(df.to_string())
                                   compound   result
0  CC(C)CCC[C@@H](C)[C@H]1CC(=O)C2=C3CC[C@H]4C[C@@H](O)CC[C@]4(C)[C@H]3CC[C@@]21C  > 50 µM
1  CC[N+](C)(CC)CCOC(=O)C1c2ccccc2Oc2ccccc21 [Methantheline bromide]  > 50 µM
2                 CC(C)(CO)COC(=O)C(C)(C)CO  > 90 µM
3  C[N+](C)(C)CCCCCCCCCC[N+](C)(C)C [Decamethonium bromide]  > 50 µM
4       C#CC(O)C(CC)CCCC (stereo not shown)  > 90 µM
5  Cc1ccc(C(=O)C(C)CN2CCCCC2)cc1 (stereo not shown) [Tolperisone hydrochloride]  > 50 µM

For every listed record, write down its CC50 at 24 h.
1. Nc1nc(N)nc(-c2ccccc2)n1
2. N#C/C(=C1/SC[C@@H](c2ccc(Cl)cc2Cl)S1)n1ccnc1
3. O=C(O)Cc1cn(-c2ccccc2)nc1-c1ccc(Cl)cc1

> 90 µM
> 50 µM
> 50 µM

For every listed record, write down its CC50 at 24 h.
1. CC(C)CCC[C@@H](C)[C@H]1CC[C@H]2[C@@H]3CC[C@@H]4C[C@H](O)CC[C@]4(C)[C@H]3CC[C@]12C
2. NC(=O)c1cccnc1 [Niacinamide]

["> 50 µM", "> 90 µM"]

* * *

Target: human RXRα (Homo sapiens, UniProt P19793)
Construct: host or cells: GeneBLAzer UAS-bla HEK 293T
Sequence (P19793 227-458 limits assumed): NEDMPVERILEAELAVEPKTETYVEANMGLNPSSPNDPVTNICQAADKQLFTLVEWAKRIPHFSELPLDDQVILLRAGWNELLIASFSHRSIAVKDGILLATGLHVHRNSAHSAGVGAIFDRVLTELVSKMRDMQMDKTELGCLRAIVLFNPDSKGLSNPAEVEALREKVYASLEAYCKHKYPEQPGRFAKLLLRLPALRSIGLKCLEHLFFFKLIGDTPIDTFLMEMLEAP
Assay: RXRa-bla-Ag mammalian one-hybrid beta-lactamase assay (TOX21_TR_RXR_BLA_Agonist_Followup_ratio, aeid 2253)
Assay type: cell-based
Conditions: read-out: EMax (% of Control) tr-followup-rxr-bla-agonist-1
Where a name gives a salt, the structure may show the parent alone.
Cut-off 10% on Emax, inclusive. At or above means Condition met; below means Condition not met.

Examples with answers:
                                   molecule        group_label
0  O=C(O)Cc1cc(I)c(Oc2cc(I)c(O)c(I)c2)c(I)c1      Condition met
1  CC(C)(C)CC(C)(C)c1ccc(O)c(Cc2ccc(Cl)cc2Cl)c1 [Clofoctol, reference compound]      Condition met
2                  Cc1cccc(C)c1[N+](=O)[O-]      Condition met
3  C[C@]12CC[C@H]3C(=CCc4cc(O)ccc43)[C@@H]1CCC2=O [Equilin, reference compound]      Condition met
4    O=c1[nH]cnc2c1ncn2[C@H]1CC[C@@H](CO)O1  Condition not met
5  COc1cc(C)c(/C=C/C(C)=C/C=C/C(C)=C/C(=O)O)c(C)c1C [Acitretin, reference compound]      Condition met
6  O=C(O)CCNC(=O)c1ccccc1 [Betamipron, reference compound]  Condition not met

As a next step, examine the molecule that follows.
Does the molecule COc1ccc(OC)c(C(O)C(C)N)c1 (centres unmarked) [Methoxamine hydrochloride] have recorded Emax that is 10% or more?
Condition not met
